Test system: Candida tropicalis
Assay: Broth microdilution (M27-A3, M27-S4), gold standard culture-based AST
Type: cell-based
Conditions: blind-4
experimental readout: Resistance profiles by broth microdilution (the gold standard)

{"molecule": "CC[C@H](C)C[C@H](C)CCCCCCCCC(=O)N[C@H]1C[C@@H](O)[C@@H](NCCN)NC(=O)[C@@H]2[C@@H](O)CCN2C(=O)[C@H]([C@H](O)CCN)NC(=O)[C@H]([C@H](O)[C@@H](O)c2ccc(O)cc2)NC(=O)[C@@H]2C[C@@H](O)CN2C(=O)[C@H]([C@@H](C)O)NC1=O", "reported result": "S"}
{"molecule": "Nc1nc(=O)[nH]cc1F", "reported result": "S"}
{"molecule": "CCC(C)n1ncn(-c2ccc(N3CCN(c4ccc(OCC5COC(Cn6cncn6)(c6ccc(Cl)cc6Cl)O5)cc4)CC3)cc2)c1=O (centres unmarked)", "reported result": "R"}
{"molecule": "C[C@@H]1[C@H](O)[C@@H](C)/C=C/C=C/C=C/C=C/C=C/C=C/C=C/[C@H](O[C@@H]2O[C@H](C)[C@@H](O)[C@H](N)[C@@H]2O)C[C@@H]2O[C@](O)(C[C@@H](O)C[C@@H](O)[C@H](O)CC[C@@H](O)C[C@@H](O)CC(=O)O[C@H]1C)C[C@H](O)[C@H]2C(=O)O", "reported result": "S"}
{"molecule": "C[C@@H](c1ncncc1F)[C@](O)(Cn1cncn1)c1ccc(F)cc1F", "reported result": "R"}

----------
Tested on: Streptococcus pneumoniae
Assay: VITEK2 Compact AST (AST-GP68 cards) with penicillin disc diffusion, gold standard culture-based AST; further: key: ‘R’ indicates drug-resistant; ‘S’ indicates drug-susceptible
Format: cell-based
Details: blind 2
experimental readout: blind 2 by AST

{"molecule": "COc1c(N2C[C@@H]3CCCN[C@@H]3C2)c(F)cc2c(=O)c(C(=O)O)cn(C3CC3)c12 [moxifloxacin]", "experimental readout": "blind 2 by AST", "reported result": "S"}
{"molecule": "CO/N=C(\\C(=O)N[C@@H]1C(=O)N2C(C(=O)O)=C(COC(C)=O)CS[C@H]12)c1csc(N)n1 [cefotaxime]", "experimental readout": "blind 2 by AST", "reported result": "R"}
{"molecule": "C[C@H]1COc2c(N3CCN(C)CC3)c(F)cc3c(=O)c(C(=O)O)cn1c23 [levofloxacin]", "experimental readout": "blind 2 by AST", "reported result": "S"}
{"molecule": "C[C@@H](O)[C@H]1C(=O)N2C(C(=O)O)=C(S[C@@H]3CN[C@H](C(=O)N(C)C)C3)[C@H](C)[C@H]12 [meropenem]", "experimental readout": "blind 2 by AST", "reported result": "S"}
{"molecule": "C[C@@H](O)[C@H]1C(=O)N2C(C(=O)O)=C(S[C@@H]3CN[C@H](C(=O)Nc4cccc(C(=O)O)c4)C3)[C@H](C)[C@H]12 [ertapenem]", "experimental readout": "blind 2 by AST", "reported result": "S"}
{"molecule": "CC[C@H]1OC(=O)[C@H](C)[C@@H](O[C@H]2C[C@@](C)(OC)[C@@H](O)[C@H](C)O2)[C@H](C)[C@@H](O[C@@H]2O[C@H](C)C[C@H](N(C)C)[C@H]2O)[C@](C)(O)C[C@@H](C)C(=O)[C@H](C)[C@@H](O)[C@]1(C)O [erythromycin]", "experimental readout": "blind 2 by AST", "reported result": "R"}
